Target: DNA (cytosine-5)-methyltransferase 3A (Homo sapiens, UniProt Q9Y6K1)
Sequence (Q9Y6K1 whole entry, looked up): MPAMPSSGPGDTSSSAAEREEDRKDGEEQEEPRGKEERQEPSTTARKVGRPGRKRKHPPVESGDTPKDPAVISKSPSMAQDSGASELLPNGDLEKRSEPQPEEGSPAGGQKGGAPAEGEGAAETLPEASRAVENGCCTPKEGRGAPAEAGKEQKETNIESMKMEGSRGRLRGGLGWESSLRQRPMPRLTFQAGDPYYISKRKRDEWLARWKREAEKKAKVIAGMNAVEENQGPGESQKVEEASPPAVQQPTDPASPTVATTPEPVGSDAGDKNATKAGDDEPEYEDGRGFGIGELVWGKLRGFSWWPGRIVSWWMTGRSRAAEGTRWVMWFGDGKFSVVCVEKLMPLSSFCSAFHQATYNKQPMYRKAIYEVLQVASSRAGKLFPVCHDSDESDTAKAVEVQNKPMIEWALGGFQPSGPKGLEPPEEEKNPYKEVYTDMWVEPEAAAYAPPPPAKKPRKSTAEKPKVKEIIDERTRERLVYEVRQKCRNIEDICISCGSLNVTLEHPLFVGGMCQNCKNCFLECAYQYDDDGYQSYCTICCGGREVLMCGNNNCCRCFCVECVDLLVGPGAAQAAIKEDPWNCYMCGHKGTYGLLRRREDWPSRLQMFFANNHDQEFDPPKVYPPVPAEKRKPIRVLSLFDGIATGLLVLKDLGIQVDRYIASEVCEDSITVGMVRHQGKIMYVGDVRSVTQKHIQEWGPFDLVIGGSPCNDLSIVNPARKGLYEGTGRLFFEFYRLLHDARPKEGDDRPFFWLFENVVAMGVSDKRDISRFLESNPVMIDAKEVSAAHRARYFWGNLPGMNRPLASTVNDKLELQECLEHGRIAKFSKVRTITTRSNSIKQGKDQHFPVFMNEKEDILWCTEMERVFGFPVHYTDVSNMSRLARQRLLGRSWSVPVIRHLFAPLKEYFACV
Experiment: Inhibition of DNMT3A (unknown origin) at 5 uM preincubated for 15 mins followed by substrate and [3H-SAM] addition and measured after 60 mins by microbeta analysis relative to control
Conditions: time 75.0 min
Property label: inhibition (%)

[[record]]
substance_smiles = "CC(C)N1CCC(Nc2nc(-c3ccc(F)cc3)nc3c2ncn3CCCN2CCCC2)CC1"
property_label = "inhibition"
unit_of_measure = "%"
value = 14

[[record]]
substance_smiles = "CN1CCN(c2cc(NCC3CCN(C(=O)OC(C)(C)C)CC3)c3cnn(CCCN4CCOCC4)c3c2)CC1"
property_label = "inhibition"
unit_of_measure = "%"
value = 19

[[record]]
substance_smiles = "CN1CCC(Nc2nc(-c3ccc(F)nc3)nc3c2ccn3CCCN2CCCC2)CC1"
property_label = "inhibition"
unit_of_measure = "%"
value = 6.8

[[record]]
substance_smiles = "CN1CCC(Nc2nc(N3CCCCC3)nc3c2ccn3CCCN2CCCC2)CC1"
property_label = "inhibition"
unit_of_measure = "%"
value = 6.9

